FYI, the data here is from patent US8642765B2.

- System: mouse melanoma cell line K111
- assay-text: MTT growth inhibition of K111 cells
- Format: cell-based
- experimental-conditions: Klll, read-out: IC50 (μM) Tumor cells Klll
- Experimental: The drugs were formulated into a stock solution in DMSO, and the concentration of the stock solution was 20 mmol (used within 4 hours). […] The DU145 cell in logarithmic growth phase were selected, centrifuged, counted, and formulated into a cell suspension (2.5×10^4/ml) with RPM11640 medium containing 10% calf serum. […] After incubating for 72 hours, the viability of cells was measured by MTT assay. The absorbance value (A) was measured with detection wavelength at 540 nm, reference wavelength at 630 nm. […]
Mark True only for IC50 values smaller than 10 µM; exact matches and larger values are False.

Req: API: query returns whether the molecule falls strictly under 10 µM in IC50. Query: `CN1C(=O)C(=C2Nc3ccccc3C2=NO)c2cccnc21`
Resp: True

Req: Find out if reported IC50 for `CN1C(=O)C(=C2Nc3ccc(Cl)cc3C2=NO)c2cccnc21` is less than 10 µM
Resp: True

Req: For this molecule, is IC50 lower than 10 µM? `CC(C)N1C(=O)C(=C2Nc3ccc(Br)cc3C2=O)c2cccnc21`
Resp: False

Req: Consider `COc1ccc2c(c1)C(=O)C(=C1C(=O)N(C)c3ncc(C)cc31)N2` . Does its IC50 lie strictly below 10 µM?
Resp: False

----------
pIC50 overview
- Test system: DU145 tumor cells
- assay-text: MTT growth inhibition of DU145 cells, 72 h
- Assay type: cell-based, human
- experimental-conditions: Table 5; DU145, 72 h, MTT
Please treat pIC50 as minus the base-10 logarithm of the molar concentration.

Below: 5 compounds and their reported pIC50.
| compound | endpoint | value-observed |
| --- | --- | --- |
| CC(C)N1C(=O)C(=C2C(=O)Nc3ccc(Cl)cc32)c2cnccc21 | pIC50 | 5.01 |
| O=C1C(=C2Nc3ccc(Cl)cc3C2=NO)c2cnccc2N1Cc1ccccc1 | pIC50 | 5.14 |
| CC(=O)OCC1OC(N2C(=O)C(=C3C(=O)Nc4ccccc43)c3cnccc32)C(OC(C)=O)C1OC(C)=O (stereo not shown) | pIC50 | 5.10 |
| CCN1C(=O)C(=C2Nc3ccc(Br)cc3C2=O)c2cnccc21 | pIC50 | 5.06 |
| O=C1C(=C2C(=O)N(Cc3ccccc3)c3ccncc32)Nc2ccccc21 | pIC50 | 4.92 |

Req: Find the measured pIC50 of `CC(C)N1C(=O)C(=C2Nc3ccc(Cl)cc3C2=O)c2cnccc21` with DU145 tumor cells as test system.
Resp: 5.05

Req: Write pIC50 of `CCCCN1C(=O)C(=C2Nc3ccccc3C2=O)c2cnccc21` ; system used: DU145 tumor cells
Resp: 4.94

----------
- Tested on: DU145 tumor cells
- assay-text: MTT growth inhibition of DU145 cells, 72 h
- Assay type: cell-based, human
- experimental-conditions: Table 5; DU145, 72 h, MTT
endpoint: IC90 (µM)
Please reply with the bare figure in µM and do not write the unit itself.

Below are worked cases with known answers.
| smiles-repr | IC90 (µM) |
| --- | --- |
| CCCCN1C(=O)C(=C2Nc3ccccc3C2=O)c2cnccc21 | 39 |
| CCN1C(=O)C(=C2Nc3ccc(Br)cc3C2=O)c2cnccc21 | 28 |
| CC(C)N1C(=O)C(=C2Nc3ccc(Cl)cc3C2=O)c2cnccc21 | 48 |
| O=C1C(=C2C(=O)N(Cc3ccccc3)c3ccncc32)Nc2ccccc21 | 85 |

Req: Send back DU145 tumor cells IC90 of `O=C1C(=C2C(=O)N(Cc3ccccc3)c3ccncc32)Nc2ccc(Br)cc21` only.
Resp: 23.5

Req: System DU145 tumor cells. Read-out IC90. Item `O=C1C(=C2Nc3ccc(Cl)cc3C2=NO)c2cnccc2N1Cc1ccccc1` . Report value.
Resp: 20

Req: Find the measured IC90 of `CC(C)N1C(=O)C(=C2C(=O)Nc3ccc(Cl)cc32)c2cnccc21` with DU145 tumor cells as test system.
Resp: 29
